All figures here come from the supplement of paper PMC10567573.

B1: ZC3H15 (parent)
chain: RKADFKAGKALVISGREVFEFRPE

Variants of: B1
Experiment: protein stability index of a GFP-peptide fusion (GPS, HEK-293T) (PSI 1-6); higher = more stable;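 note: lentivirally expressed fusions sorted by FACS into six bins by GFP to DsRed ratio, PSI derived from sequencing read proportions per bin multiplied by bin number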
Settings: c terminus: a fixed tail appended
quantity name: protein stability index
Give the value as a plain number.

Look over these answered cases.
seq text: RKADFKAGKALVISGREYFEFRPE [V18Y]
quantity name: protein stability index
recorded result: 2.74
//
seq text: RKADFKAMKALVISGREVFEFRPE [G8M]
quantity name: protein stability index
recorded result: 2.59
//
seq text: RKADHKAGKALVISGREVFEFRPE [F5H]
quantity name: protein stability index
recorded result: 3.77
//
seq text: EKADFKAGKALVISGREVFEFRPE [R1E]
quantity name: protein stability index
recorded result: 3.5

Exercise: Sample RKADFKAYKALVISGREVFEFRPE [G8Y] — what was its protein stability index?
Solution: 1.74

Exercise: Sample RKAMFKAGKALVISGREVFEFRPE [D4M] — what was its protein stability index?
Solution: 2.54

Exercise: Sample RKADFKKGKALVISGREVFEFRPE [A7K] — what was its protein stability index?
Solution: 3.67

Exercise: Sample DKADFKAGKALVISGREVFEFRPE [R1D] — what was its protein stability index?
Solution: 3.7

Exercise: Sample RKADFKAGKALVIYGREVFEFRPE [S14Y] — what was its protein stability index?
Solution: 2.39

Exercise: Sample RKADFKAGKDLVISGREVFEFRPE [A10D] — what was its protein stability index?
Solution: 3.5

Exercise: Sample RKADFKAGKALVISGREVFEFRPL [E24L] — what was its protein stability index?
Solution: 1.9
